Test system: CCRIS mutagenicity, Ames/micronucleus/aberration tests
Assay: CCRIS mutagenicity studies
Details: Test System: AMES SALMONELLA TYPHIMURIUM; Strain/Indicator: TA97; Metabolic Activation: NONE; Method: STANDARD PLATE
Activity calls are given as the source filed them. No rule for the calls is given here.
Output constraint: value belongs to active, inactive

Recorded results for 2 compounds are shown here.
compound=Cc1cc(O)ccc1Cl category_label=inactive
compound=O=Nc1c2ccccc2c2ccc3cccc4ccc1c2c43 category_label=active

IN: Could you please tell me the result logged for "CN=C1C=CC(=C(c2ccc(N(C)C)cc2)c2ccc(N(C)C)cc2)C=C1" in this assay?
OUT: inactive

IN: Give the logged outcome of this assay for the following compound: "O=C1c2ccccc2C(=O)c2ccccc21"
OUT: inactive

IN: Please share the test call associated with Cc1cc(Cl)ccc1OC(C)C(=O)O (stereo not drawn) .
OUT: inactive

Recorded values, source PubChem BioAssay AID1259407.
